tested on: MDA-MB-468 breast; assay: NCI tumour cell line growth inhibition, 48 h; in the data active = GI50 below about 0.43 µM; inactive = the rest
Starred links: 1 amine or outer side, 2 acyl side, 3 side chain; linkers in the order of their positions; H or OH if unused. Non-standard residues stand in square brackets, D forms with d. Residues, ends and D or L forms follow the SMILES beside them. *: point of attachment. X14 = C/C=C/CC(C)C(O)[C@H](N[*:1])C(=O)[*:2]; Decanoyl = CCCCCCCCCC(=O)*; Leu(ol) = CC(C)C[C@H](N)CO; Iva = CC[C@](C)(N)C(=O)O; Aib = CC(C)(N)C(=O)O
Write down the outcome that applies. Available outcomes: active, inactive

Below, 5 molecules whose answers are already recorded.
| MOLECULE | MEASURED_ON | CLASSIFICATION |
| --- | --- | --- |
| Oc1ccc(Cc2ccc(O)c(C3CC(c4ccc(Cl)cc4)=NN3)c2)cc1C1CC(c2ccc(Cl)cc2)=NN1 (stereo unspecified) | MDA-MB-468 breast | inactive |
| O=C1/C(=C\c2ccccc2)CN(C(=O)c2ccccc2)C/C1=C\c1ccccc1 | MDA-MB-468 breast | inactive |
| Brc1ccc(Nc2nc3ccccc3nc2Nc2ccc(Br)cc2)cc1 | MDA-MB-468 breast | active |
| CN1CCN(c2ccc(Nc3nc(NCCNS(=O)(=O)c4ccc5ccccc5c4)c4sccc4n3)cc2)CC1 | MDA-MB-468 breast | inactive |
| O=C(Cc1ccc(Nc2ccnc(C(F)(F)F)c2)cc1)N/N=C/c1ccccc1O | MDA-MB-468 breast | inactive |

Query :: Any idea what this test logged for CN(CSc1ccc(Cl)cc1)c1ccc(CSc2ccc(Cl)cc2)cc1 ?
Result :: inactive

Query :: Same read-out for NC(=O)CCc1ccccc1Oc1nccc(-c2c(-c3ccc(F)cc3)ncn2C2CCNCC2)n1 ?
Result :: inactive

Query :: Same read-out for C/C=C/CC(C)C(O)[C@H](NC(=O)[C@@H]1CCCN1C(=O)C(C)(C)NC(=O)CCCCCCCCC)C(=O)N[C@@](C)(CC)C(=O)N[C@@H](CCC(N)=O)C(=O)N[C@H](CCC(N)=O)C(=O)NC(C)(C)C(=O)N[C@@](C)(CC)C(=O)N[C@@H](CCC(N)=O)C(=O)N[C@H](CC(C)C)C(=O)N[C@H](CO)CC(C)C (stereo partly drawn) (Decanoyl-[Aib]P[X14][Iva]Q[dQ][Aib][Iva]Q[dL][Leu(ol)]) ?
Result :: active

Query :: Same read-out for O=C1NC(=O)C(c2ccccc2)=C1Nc1ccccc1 ?
Result :: inactive

Query :: Same read-out for CCCOc1ccc(/C=N/Nc2cc(C)nc3ccc(Cl)cc23)cc1 ?
Result :: inactive

Query :: Same read-out for CCCCCCc1cc2cc(-c3csc(/C=C/c4ccccc4)n3)c(=O)oc2cc1O ?
Result :: inactive

---

system: MDA-MB-468 breast; assay: NCI tumour cell line growth inhibition, 48 h
MEASURED_PROPERTY: TGI

Below, each entry is followed by its recorded TGI result.
| MOLECULE | MEASURED_ON | TGI |
| --- | --- | --- |
| FC(F)(F)c1ccc(-c2ncc(-c3ccc(C(F)(F)F)cc3)c(NCc3cc(C(F)(F)F)cc(C(F)(F)F)c3)n2)cc1 | MDA-MB-468 breast | 15.5 µM |
| O=C(/C=C/c1cccc(S(=O)(=O)Nc2ccccc2)c1)NO | MDA-MB-468 breast | 5.36 µM |
| O=c1[nH]c(F)nc2c1ncn2C1OC(CO)C(O)C1O (stereo not drawn) | MDA-MB-468 breast | > 100 µM |
| O=C1/C(=C\c2ccccc2)CN(C(=O)c2ccccc2)C/C1=C\c1ccccc1 | MDA-MB-468 breast | 3.56 µM |
| NCCCNc1nc2ccc(Cl)cc2c2c(=O)c3cc(F)ccc3sc12 | MDA-MB-468 breast | 10.1 µM |
| COc1ccc(C2CC(c3ccc4ccccc4c3)=NN2c2nc(O)c(C3=c4cc(OC)ccc4=NC3=O)s2)cc1 (stereo not drawn) | MDA-MB-468 breast | 0.2 µM |

Query :: Record lookup: for MDA-MB-468 breast, what TGI belongs to CC(C)OCc1cc(CN2CCN(c3cccc(Cl)c3)CC2)c(O)c2ncccc12 ?
Result :: 1.67 µM
